Where do the numbers come from? From patent US9334285B2.

- targetSystem: CYP19A1 (Homo sapiens)
- Sequence (P11511 1-503): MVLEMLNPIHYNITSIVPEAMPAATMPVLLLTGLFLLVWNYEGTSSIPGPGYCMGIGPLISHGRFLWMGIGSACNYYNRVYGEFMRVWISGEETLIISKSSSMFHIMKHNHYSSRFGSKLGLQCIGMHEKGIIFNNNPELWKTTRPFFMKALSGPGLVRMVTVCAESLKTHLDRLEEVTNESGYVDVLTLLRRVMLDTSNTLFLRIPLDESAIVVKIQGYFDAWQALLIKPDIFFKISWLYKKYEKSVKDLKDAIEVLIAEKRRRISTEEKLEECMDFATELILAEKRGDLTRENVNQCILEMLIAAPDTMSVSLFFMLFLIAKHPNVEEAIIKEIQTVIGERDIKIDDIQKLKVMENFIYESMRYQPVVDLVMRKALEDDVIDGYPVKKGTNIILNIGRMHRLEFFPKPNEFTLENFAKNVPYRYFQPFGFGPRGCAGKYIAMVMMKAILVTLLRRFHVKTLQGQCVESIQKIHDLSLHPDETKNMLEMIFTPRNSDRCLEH
- assayExplanation: Inhibition of CYP19A1 (Kragie et al.)
- Type: biochemical
propertyName: IC50

[
  {
    "compound": "N#Cc1ccc(-n2cnc3c2C(=O)OC(CO)C3)cc1Cl (single isomer, unassigned) [Compound 33A]",
    "result": "> 20 µM"
  }
]

###

These molecules were tested on aldosterone synthase (CYP11B2) (Macaca fascicularis, UniProt A0A2K5UPL9); pIC50 is the recorded read-out.
pIC50: −log10 of the molar value.

[
  {
    "molecule": "CN1C(=O)CCc2cc(-n3cnc4c3C(=O)OC(C)(CO)C4)ccc21 (single isomer, unassigned) [Compound 40A]",
    "pIC50": 6.80
  },
  {
    "molecule": "O=C1OC(CO)Cc2ncn(-c3ccc(Cl)cc3)c21 (stereo not shown)",
    "pIC50": 6.27
  },
  {
    "molecule": "CC1(CO)Cc2ncn(-c3ccc(Cl)c(Cl)c3)c2C(=O)O1 (single isomer, unassigned) [Compound 30A]",
    "pIC50": 7.55
  },
  {
    "molecule": "CC1Cc2ncn(-c3ccc(C#N)c(Cl)c3)c2C(=O)O1 (single isomer, unassigned) [Compound 15A]",
    "pIC50": 8.12
  },
  {
    "molecule": "CC1(CO)Cc2ncn(-c3ccc(Cl)c(Cl)c3)c2C(=O)O1 (single isomer, unassigned) [Compound 30B]",
    "pIC50": 7.51
  },
  {
    "molecule": "CC1(C)Cc2ncn(-c3ccc(C#N)c(Cl)c3)c2C(=O)O1",
    "pIC50": 8.28
  },
  {
    "molecule": "N#Cc1ccc(-n2cnc3c2C(=O)OC(CO)C3)cc1Cl (single isomer, unassigned) [Compound 33B]",
    "pIC50": 7.57
  },
  {
    "molecule": "CC1(CO)Cc2ncn(-c3ccc(Cl)cc3)c2C(=O)O1 (single isomer, unassigned) [Compound 38A]",
    "pIC50": 6.92
  },
  {
    "molecule": "CC1(C=O)Cc2ncn(-c3ccc(C#N)c(Cl)c3)c2C(=O)O1 (stereo not shown)",
    "pIC50": 6.27
  },
  {
    "molecule": "COC(=O)C1(C)Cc2ncn(-c3ccc(C#N)c(Cl)c3)c2C(=O)O1 (stereo not shown)",
    "pIC50": 7.55
  },
  {
    "molecule": "CC1(C)Cc2ncn(C3Cc4ccccc4C3)c2C(=O)O1",
    "pIC50": 7.19
  },
  {
    "molecule": "CC1(CO)Cc2ncn(-c3ccc4c(c3)CCO4)c2C(=O)O1 (single isomer, unassigned) [Compound 42B]",
    "pIC50": 7.12
  },
  {
    "molecule": "Cc1cc(C#N)ccc1-n1cnc2c1C(=O)OC(C)(C)C2",
    "pIC50": 8.20
  },
  {
    "molecule": "Cc1cc(-n2cnc3c2C(=O)OC(C)(CO)C3)ccc1C#N (single isomer, unassigned) [Compound 39B]",
    "pIC50": 7.89
  },
  {
    "molecule": "CC1(C)Cc2ncn(-c3ccc(C#N)c(F)c3)c2C(=O)O1",
    "pIC50": 7.37
  },
  {
    "molecule": "CC1(CO)Cc2ncn(-c3cccc(Cl)c3F)c2C(=O)O1 (single isomer, unassigned) [Compound 35B]",
    "pIC50": 6.21
  }
]

###

- targetSystem: cortisol synthase (CYP11B1) (Macaca fascicularis, UniProt A0A2K5ULY1)
- assayExplanation: Inhibition of cortisol synthesis, cynomolgus adrenal mitochondria, 11-deoxycortisol as substrate
- Assay type: biochemical, cynomolgus monkey
- setupConditions: Cortisol Inhibition IC50, cynomolgus adrenal mitochondria, 150 units of CYP11B1, 11-deoxycortisol as substrate
Output yes (1) for records whose IC50 is lower than 6 µM, no (0) for records at or above 6 µM.

[
  {
    "molecule": "CC(=O)OCC1(C)Cc2ncn(-c3ccc(C#N)c(Cl)c3)c2C(=O)O1 (stereo not shown)",
    "category": "no (0)"
  },
  {
    "molecule": "Cc1cc(C#N)ccc1-n1cnc2c1C(=O)OC(C)(C)C2",
    "category": "yes (1)"
  },
  {
    "molecule": "Cc1cc(-n2cnc3c2C(=O)OC(C)(CO)C3)ccc1C#N (single isomer, unassigned) [Compound 39A]",
    "category": "yes (1)"
  },
  {
    "molecule": "C[C@@]1(CO)Cc2ncn(-c3ccc(C#N)c(Cl)c3)c2C(=O)O1 (single isomer, unassigned) [Compound 29B]",
    "category": "no (0)"
  },
  {
    "molecule": "COC(=O)C1(C)Cc2ncn(-c3ccc(C#N)c(Cl)c3)c2C(=O)O1 (stereo not shown)",
    "category": "yes (1)"
  },
  {
    "molecule": "CC1Cc2ncn(-c3ccc(C#N)c(Cl)c3)c2C(=O)O1 (single isomer, unassigned) [Compound 15B]",
    "category": "no (0)"
  },
  {
    "molecule": "O=C1OCCc2ncn(C3Cc4ccccc4C3)c21",
    "category": "no (0)"
  },
  {
    "molecule": "CC1(C(=O)O)Cc2ncn(-c3ccc(C#N)c(Cl)c3)c2C(=O)O1 (stereo not shown)",
    "category": "no (0)"
  },
  {
    "molecule": "N#Cc1ccc(-n2cnc3c2C(=O)OCC3)cc1Cl",
    "category": "no (0)"
  },
  {
    "molecule": "N#Cc1ccc(-n2cnc3c2C(=O)OC(CO)C3)cc1Cl (single isomer, unassigned) [Compound 33B]",
    "category": "no (0)"
  }
]

###

- targetSystem: UniProtKB A0A2K5UPL9
- Sequence (A0A2K5UPL9 1-503): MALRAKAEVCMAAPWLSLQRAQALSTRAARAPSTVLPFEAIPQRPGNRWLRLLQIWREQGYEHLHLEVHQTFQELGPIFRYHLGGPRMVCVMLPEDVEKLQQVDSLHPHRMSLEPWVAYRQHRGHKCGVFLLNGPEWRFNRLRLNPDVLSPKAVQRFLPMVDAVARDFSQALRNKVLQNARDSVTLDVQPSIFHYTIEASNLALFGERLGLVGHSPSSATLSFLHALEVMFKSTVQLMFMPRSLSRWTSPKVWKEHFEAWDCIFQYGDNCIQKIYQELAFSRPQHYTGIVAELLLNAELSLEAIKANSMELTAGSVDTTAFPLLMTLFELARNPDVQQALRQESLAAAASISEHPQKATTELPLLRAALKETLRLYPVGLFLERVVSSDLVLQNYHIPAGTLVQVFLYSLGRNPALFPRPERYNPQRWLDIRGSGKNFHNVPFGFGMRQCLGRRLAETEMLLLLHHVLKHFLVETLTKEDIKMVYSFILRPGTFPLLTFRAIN
propertyName: IC50 (nM)

[
  {
    "compound": "Cc1cc(-n2cnc3c2C(=O)OC(C)(CO)C3)ccc1C#N (single isomer, unassigned) [Compound 39A]",
    "result": 11
  },
  {
    "compound": "CC1(C)Cc2ncn(-c3ccc(C#N)cc3Cl)c2C(=O)O1",
    "result": 17
  },
  {
    "compound": "CC1(CO)Cc2ncn(-c3cccc(F)c3Cl)c2C(=O)O1 (single isomer, unassigned) [Compound 34A]",
    "result": 870
  },
  {
    "compound": "CC1(C(=O)O)Cc2ncn(-c3ccc(C#N)c(Cl)c3)c2C(=O)O1 (centres unmarked)",
    "result": 670
  },
  {
    "compound": "CC1(C)Cc2ncn(-c3ccc(Cl)c(Cl)c3)c2C(=O)O1",
    "result": 8.4
  },
  {
    "compound": "CC(=O)OCC1(C)Cc2ncn(-c3ccc(C#N)c(Cl)c3)c2C(=O)O1 (centres unmarked)",
    "result": 36
  },
  {
    "compound": "Cc1cc(C#N)ccc1-n1cnc2c1C(=O)OC(C)(CO)C2 (single isomer, unassigned) [Compound 31B]",
    "result": 210
  },
  {
    "compound": "CC1(C)Cc2ncn(-c3cccc(F)c3Cl)c2C(=O)O1",
    "result": 50
  },
  {
    "compound": "O=C1OCCc2ncn(C3Cc4ccccc4C3)c21",
    "result": 500
  },
  {
    "compound": "N#Cc1ccc(-n2cnc3c2C(=O)OC(CO)C3)cc1Cl (single isomer, unassigned) [Compound 33A]",
    "result": 89
  },
  {
    "compound": "CC1(CO)Cc2ncn(-c3ccc(C#N)cc3)c2C(=O)O1 (centres unmarked)",
    "result": 210
  },
  {
    "compound": "N#Cc1ccc(-n2cnc3c2C(=O)OCC3)cc1Cl",
    "result": 25
  },
  {
    "compound": "CC1Cc2ncn(-c3ccc(C#N)cc3)c2C(=O)O1 (single isomer, unassigned) [Compound 16B]",
    "result": 160
  },
  {
    "compound": "CN1C(=O)CCc2cc(-n3cnc4c3C(=O)OC(C)(CO)C4)ccc21 (single isomer, unassigned) [Compound 40B]",
    "result": 460
  },
  {
    "compound": "CC1Cc2ncn(-c3ccc(C#N)c(Cl)c3)c2C(=O)O1 (single isomer, unassigned) [Compound 15B]",
    "result": 12
  },
  {
    "compound": "CC1(CO)Cc2ncn(-c3cccc(Cl)c3F)c2C(=O)O1 (single isomer, unassigned) [Compound 35A]",
    "result": 70
  },
  {
    "compound": "CC1(CO)Cc2ncn(-c3cccc(F)c3Cl)c2C(=O)O1 (single isomer, unassigned) [Compound 34B]",
    "result": 120
  }
]
